Please provide measured melting point for the entries that follow.

Qu. # get_value(readout='melting point', item= `COC(=O)c1nccnc1NC(=O)c1ccc(C)cc1` )
Ans. 158.9 to 161.2 °C

Qu. # get_value(readout='melting point', item= COC(=O)c1nccnc1NC(=O)c1ccccc1Cl [Compound 13e] )
Ans. 114.5 to 115.6 °C

Qu. # get_value(readout='melting point', item= `CNC(=O)c1nccnc1NC(=O)c1ccc(Br)cc1` )
Ans. 202 to 202.5 °C

Qu. # get_value(readout='melting point', item= `NC(=O)c1nccnc1NC(=O)c1ccc(N)cc1` )
Ans. > 300 °C

Qu. # get_value(readout='melting point', item= `CNC(=O)c1nccnc1NC(=O)c1ccc(C)cc1` )
Ans. 178.4 to 179.5 °C

Qu. # get_value(readout='melting point', item= COC(=O)c1nccnc1NC(=O)c1ccc(Br)cc1 [Compound 18e] )
Ans. 195.1 to 197 °C

Qu. # get_value(readout='melting point', item= `CC(C)(C)c1ccc(C(=O)Nc2nccnc2C(N)=O)cc1` )
Ans. 210 to 211.5 °C

Qu. # get_value(readout='melting point', item= `CNC(=O)c1nccnc1NC(=O)c1ccc(Cl)cc1` )
Ans. 204.2 to 205.1 °C

Qu. # get_value(readout='melting point', item= `NC(=O)c1nccnc1NC(=O)c1ccc(O)cc1` )
Ans. 243.7 to 245.1 °C

Qu. # get_value(readout='melting point', item= `COc1ccccc1C(=O)Nc1nccnc1C(N)=O` )
Ans. 205.4 to 206.7 °C

Qu. # get_value(readout='melting point', item= `CCCCCC(=O)Nc1nccnc1C(N)=O` )
Ans. 138.4 to 139 °C

Qu. # get_value(readout='melting point', item= COC(=O)c1nccnc1NC(=O)C12CC3CC(CC(C3)C1)C2 [Compound 28e] )
Ans. 225.6 to 227.2 °C

Qu. # get_value(readout='melting point', item= COC(=O)c1nccnc1NC(=O)c1cccc(Cl)c1 [Compound 14e] )
Ans. 146.3 to 147.1 °C

* * *

Tested on: Candida tropicalis CCM 8264 (ATCC 750)
Assay: Antifungal microdilution broth (EUCAST), CT
Format: cell-based
Settings: Candida tropicalis; read after 24 h; read-out: CT MIC
Please provide measured MIC for the entries that follow.

Qu. # get_value(readout='MIC', item= `CCCCCC(=O)Nc1nccnc1C(N)=O` )
Ans. > 500 µM

Qu. # get_value(readout='MIC', item= `CN(C)C(=O)c1nccnc1NC(=O)c1ccc(Cl)cc1` )
Ans. > 500 µM

Qu. # get_value(readout='MIC', item= `CCc1ccc(C(=O)Nc2nccnc2C(N)=O)cc1` )
Ans. > 250 µM

Qu. # get_value(readout='MIC', item= COC(=O)c1nccnc1NC(=O)c1cccc(Cl)c1 [Compound 14e] )
Ans. > 500 µM

Qu. # get_value(readout='MIC', item= `CCCCCCCC(=O)Nc1nccnc1C(N)=O` )
Ans. > 250 µM

Qu. # get_value(readout='MIC', item= `O=c1[nH]c(-c2ccccc2)nc2nccnc12` )
Ans. > 125 µM

Qu. # get_value(readout='MIC', item= `Cc1ccc(C(=O)Nc2nccnc2C(=O)N(C)C)cc1` )
Ans. > 125 µM

Qu. # get_value(readout='MIC', item= `Cc1ccc(C(=O)Nc2nccnc2C(N)=O)cc1` )
Ans. > 500 µM

Qu. # get_value(readout='MIC', item= `NC(=O)c1nccnc1NC(=O)CCc1ccccc1` )
Ans. > 500 µM

Qu. # get_value(readout='MIC', item= `NC(=O)c1nccnc1NC(=O)c1cccc(F)c1` )
Ans. > 250 µM

Qu. # get_value(readout='MIC', item= `NC(=O)c1nccnc1NC(=O)c1ccc(Cl)cc1` )
Ans. > 125 µM

Qu. # get_value(readout='MIC', item= `O=c1[nH]c(-c2ccc(Br)cc2)nc2nccnc12` )
Ans. > 125 µM

Qu. # get_value(readout='MIC', item= `NC(=O)c1nccnc1NC(=O)c1ccccc1Br` )
Ans. > 500 µM
